This collection of values is drawn from patent US9216991B2.

- ASSAY TARGET: IRAK4 (Homo sapiens)
- Construct: His (N); TEV cleavage site (N)
- PROTOCOL TEXT: IRAK4 Enzymatic Assay
- Assay type: biochemical
- CONDITION DESCRIPTION: His-TEV-IRAK4 20 ng/well, ATP 2 μM, STK1-biotin peptide 300 nM, 3 hours at 30° C., FlashPlate radioactivity
Reported IC50 values for the following compounds.

Here are 5 compounds together with their reported answers.
{"COMPOUND": "CC(=O)N1CCC[C@@H](n2cc(-c3cnc(-c4cccc(-c5cnn(C)c5)c4)nc3)cn2)C1 [Example 269]", "IC50": "< 100 nM"}
{"COMPOUND": "COCCC(=O)N1CCC(n2cc(-c3cnc(-c4cccc(-c5cnn(C)c5)c4)nc3)cn2)CC1 [Example 109]", "IC50": "100 to 1000 nM"}
{"COMPOUND": "Cc1cc(-c2cccc(-c3ncc(-c4cnn([C@H]5CCCS(=O)(=O)C5)c4)cn3)c2)cnn1 (single isomer, unassigned) [Example 240]", "IC50": "100 to 1000 nM"}
{"COMPOUND": "CN(C)C(=O)C(C)(C)n1cc(-c2cnc(-c3cccc(-c4cnn(C)c4)c3)nc2)cn1 [Example 149]", "IC50": "100 to 1000 nM"}
{"COMPOUND": "CC(=O)N1[C@@H]2CC[C@H]1CC(n1cc(-c3cnc(-c4cccc(-c5cnn(C)c5)c4)nc3)cn1)C2 (stereo partly drawn) [Example 119]", "IC50": "100 to 1000 nM"}

So for Cn1cc(-c2cccc(-c3ncc(-c4cnn(C5CCCNCC5)c4)cn3)c2)cn1 (stereo not drawn) [Example 172] , the logged IC50 turned out to be < 100 nM

So for Cn1cc(-c2cccc(-c3ncc(-c4cnn(C5CCNCC5(F)F)c4)cn3)c2)cn1 (stereo not drawn) [Example 259] , the logged IC50 turned out to be 100 to 1000 nM

So for Cn1cc(-c2cccc(-c3ncc(-c4cnn(CC(=O)N5CCCC5)c4)cn3)c2)cn1 [Example 9] , the logged IC50 turned out to be 100 to 1000 nM

So for Cn1cc(-c2cccc(-c3ncc(-c4cn(C5CCOCC5)nc4C(=O)O)cn3)c2)cn1 [Example 140] , the logged IC50 turned out to be 1000 to 5000 nM

So for Cn1cc(-c2cccc(-c3ncc(-c4cnn([C@H]5CC[C@H](C(N)=O)CC5)c4)cn3)c2)cn1 [Example 206] , the logged IC50 turned out to be < 100 nM

So for Cn1cc(-c2cccc(-c3ncc(-c4cnn(CC(=O)N5CCC6(CC5)COC6)c4)cn3)c2)cn1 [Example 86] , the logged IC50 turned out to be 100 to 1000 nM

* * *

- ASSAY TARGET: IRAK4 (Homo sapiens, UniProt Q9NWZ3)
- Construct: His (N); TEV cleavage site (N)
- Sequence (Q9NWZ3 1-460): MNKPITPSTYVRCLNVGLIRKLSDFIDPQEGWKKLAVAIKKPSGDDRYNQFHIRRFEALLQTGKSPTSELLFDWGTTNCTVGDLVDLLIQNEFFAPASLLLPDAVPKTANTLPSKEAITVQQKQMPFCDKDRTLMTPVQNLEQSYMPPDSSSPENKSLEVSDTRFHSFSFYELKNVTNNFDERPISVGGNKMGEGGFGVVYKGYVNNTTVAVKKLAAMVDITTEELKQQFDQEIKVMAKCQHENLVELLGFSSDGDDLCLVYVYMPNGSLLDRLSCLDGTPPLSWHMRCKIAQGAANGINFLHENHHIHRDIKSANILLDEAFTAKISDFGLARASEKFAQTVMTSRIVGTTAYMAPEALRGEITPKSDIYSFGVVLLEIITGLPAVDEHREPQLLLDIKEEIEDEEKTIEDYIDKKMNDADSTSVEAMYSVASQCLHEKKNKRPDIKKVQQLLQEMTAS
- PROTOCOL TEXT: IRAK4 Enzymatic Assay
- CONDITION DESCRIPTION: His-TEV-IRAK4 20 ng/well, ATP 2 μM, STK1-biotin peptide 300 nM, 3 hours at 30° C., FlashPlate radioactivity
Where a name gives a salt, the structure may show the parent alone.
OUTCOME MEASURE: IC50

{"MOLECULE": "Cn1cc(-c2cccc(-c3ncc(-c4cnn(C5CCC[C@@H](S(C)(=O)=O)C5)c4)cn3)c2)cn1 (single isomer, unassigned) [Example 282]", "ASSAY TARGET": "IRAK4 (Homo sapiens, UniProt Q9NWZ3)", "RESULT": "100 to 1000 nM"}
{"MOLECULE": "Cn1cc(-c2cccc(-c3ncc(-c4cnn([C@H]5CCC[C@@H](N6CCOC6=O)C5)c4)cn3)c2)cn1 (relative stereo) [Example 257]", "ASSAY TARGET": "IRAK4 (Homo sapiens, UniProt Q9NWZ3)", "RESULT": "< 100 nM"}
{"MOLECULE": "CN1CCN(C(=O)CCn2cc(-c3cnc(-c4cccc(-c5cnn(C)c5)c4)nc3)cn2)CC1 [Example 102]", "ASSAY TARGET": "IRAK4 (Homo sapiens, UniProt Q9NWZ3)", "RESULT": "1000 to 5000 nM"}

So for CN1CCC(n2cc(-c3cnc(-c4cccc(-c5cnn(C)c5)c4)nc3)cn2)CC1 [Example 6] , the logged IC50 turned out to be 100 to 1000 nM

So for Cn1cc(-c2cccc(-c3ncc(-c4cnn(CCNS(C)(=O)=O)c4)cn3)c2)cn1 [Example 210] , the logged IC50 turned out to be 1000 to 5000 nM

So for Cn1cc(-c2cccc(-c3ncc(-c4cnn(C5CCN(C(=O)C6CCOCC6)CC5)c4)cn3)c2)cn1 [Example 107] , the logged IC50 turned out to be 100 to 1000 nM

So for Cn1cc(-c2cnc(-c3cccc(-c4cnn(C)c4)c3)nc2)cn1 [Example 32] , the logged IC50 turned out to be 100 to 1000 nM

So for Cn1cc(-c2cccc(-c3ncc(-c4cnn(C5CCOCC5CN5CCOCC5)c4)cn3)c2)cn1 (stereo not drawn) [Example 271] , the logged IC50 turned out to be 1000 to 5000 nM

So for Cc1ncccc1CCn1cc(-c2cnc(-c3cccc(-c4cnn(C)c4)c3)nc2)cn1 [Example 89] , the logged IC50 turned out to be 100 to 1000 nM

So for Cn1cc(-c2cccc(-c3ncc(-c4cnn(C5CCNCC5F)c4)cn3)c2)cn1 (stereo not drawn) [Example 30, hydrochloride] , the logged IC50 turned out to be 100 to 1000 nM

So for CNC(=O)[C@H]1CCC[C@H](n2cc(-c3cnc(-c4cccc(-c5cnn(C)c5)c4)nc3)cn2)C1 (relative stereo) [Example 181] , the logged IC50 turned out to be 100 to 1000 nM

So for CN1[C@@H]2CC[C@H]1C[C@H](n1cc(-c3cnc(-c4cccc(-c5cnn(C)c5)c4)nc3)cn1)C2 [Example 61] , the logged IC50 turned out to be < 100 nM

So for Cn1cc(-c2cccc(-c3ncc(-c4cnn(CCc5ccccn5)c4)cn3)c2)cn1 [Example 47] , the logged IC50 turned out to be 100 to 1000 nM

So for CN(C)C(=O)C1CC2COCC(C1)C2n1cc(-c2cnc(-c3cccc(-c4cnn(C)c4)c3)nc2)cn1 (mixture of isomers) [Example 273] , the logged IC50 turned out to be 100 to 1000 nM

So for CN(C)CCNC(=O)[C@H]1CC[C@H](n2cc(-c3cnc(-c4cccc(-c5cnn(C)c5)c4)nc3)cn2)CC1 [Example 171] , the logged IC50 turned out to be < 100 nM
